molecular target: Factor X (FX), P00742
Sequence (P00742 whole entry, looked up): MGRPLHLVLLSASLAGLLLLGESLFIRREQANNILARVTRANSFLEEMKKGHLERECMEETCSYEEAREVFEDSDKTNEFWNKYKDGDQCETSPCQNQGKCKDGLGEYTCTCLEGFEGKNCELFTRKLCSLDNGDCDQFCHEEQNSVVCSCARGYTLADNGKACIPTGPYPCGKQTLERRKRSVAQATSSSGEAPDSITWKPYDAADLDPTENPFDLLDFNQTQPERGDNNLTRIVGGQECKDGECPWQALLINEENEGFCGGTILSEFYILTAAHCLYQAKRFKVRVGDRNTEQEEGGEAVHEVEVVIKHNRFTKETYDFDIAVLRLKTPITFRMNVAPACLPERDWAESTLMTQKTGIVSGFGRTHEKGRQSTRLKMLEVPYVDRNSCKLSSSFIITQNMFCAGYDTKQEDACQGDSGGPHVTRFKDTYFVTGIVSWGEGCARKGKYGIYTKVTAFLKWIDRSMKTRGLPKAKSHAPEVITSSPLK
measurement-kind: kcat of FX activation by FIXa in the Xase complex (FVIIIa, PC/PS vesicles, Ca2+) (s⁻¹)
// note: answer is a bare numeric in s⁻¹

In plain terms, FIXa-K247N/N249S/N260S/R318Y/R338E/R403E/E410N (protein) chain 1: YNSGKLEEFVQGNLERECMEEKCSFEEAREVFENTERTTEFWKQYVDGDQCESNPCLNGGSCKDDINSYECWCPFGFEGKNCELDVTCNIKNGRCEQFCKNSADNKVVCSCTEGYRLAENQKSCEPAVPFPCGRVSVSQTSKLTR chain 2: VVGGEDAKPGQFPWQVVLNGKVDAFCGGSIVNEKWIVTAAHCVETGVKITVVAGEHNIEETEHTEQNRSVIRIIPHHNYSAAINKYNHDIALLELDEPLVLNSYVTPICIADKEYTNIFLKFGSGYVSGWGRVFHKGYSALVLQYLRVPLVDRATCLESTKFTIYNNMFCAGFHEGGRDSCQGDSGGPHVTEVEGTSFLTGIISWGEECAMKGKYGIYTKVSEYVNWIKNKTKLT has a documented kcat of FX activation by FIXa in the Xase complex (FVIIIa, PC/PS vesicles, Ca2+) of 3.4
